Listing of recorded pIC50 by entry.
# Test system: PC-3
# test: Cytotoxicity against human PC3 cells assessed as cell growth after 48 hrs by sulforhodamine B assay
# Type: functional, cell-based
# assayContext: Homo sapiens, PC-3, 48 h
Bear in mind: pIC50 is minus log10 of a mol/L concentration; give just that figure.

Below, 5 compounds whose answers are already recorded.
Cc1ccccc1N1C[C@]12C(=O)O[C@@H]1[C@H]2CC[C@H](C)[C@]2(O)C=CC(=O)[C@@]12C: 4.90
C[C@H]1CC[C@@H]2[C@@H](OC(=O)[C@]23CC(c2ccccc2Cl)=NO3)[C@]2(C)C(=O)C=C[C@@]12O: 4.92
C[C@H]1CC[C@@H]2[C@@H](OC(=O)[C@]23CC(c2ccc([N+](=O)[O-])cc2)=NO3)[C@]2(C)C(=O)C=C[C@@]12O: 4.92
COc1ccc(C2=NO[C@]3(C2)C(=O)O[C@@H]2[C@H]3CC[C@H](C)[C@]3(O)C=CC(=O)[C@@]23C)cc1: 4.46
C[C@H]1CC[C@@H]2[C@@H](OC(=O)[C@]23CN3c2cccc([N+](=O)[O-])c2)[C@]2(C)C(=O)C=C[C@@]12O: 5.00

Give its pIC50 value. Item: C[C@H]1CC[C@@H]2[C@@H](OC(=O)[C@]23CC(c2ccccc2)=NO3)[C@]2(C)C(=O)C=C[C@@]12O
4.34

Give its pIC50 value. Item: COC(=O)c1cccc(N2C[C@]23C(=O)O[C@@H]2[C@H]3CC[C@H](C)[C@]3(O)C=CC(=O)[C@@]23C)c1
5.00

These entries and their values trace back to ChEMBL document CHEMBL1806428.
